These measurements were taken from patent US20230118024A1.

Measured FIG. 30 FACS value (IC17=0, DQN0139bb=100), listed per entry for reference.
- TARGET_UNDER_TEST: T1, HLA-DQ2.5/alpha 1b gliadin peptide complex on Ba/F3 cells (human; wheat)
- T1 construct: also called Ba/F3-HLA-DQ2.5/alpha 1b gliadin peptide
- PROTOCOL_TEXT: FACS
RESULT_TYPE: FIG. 30 FACS value (IC17=0, DQN0139bb=100)

[
  {
    "BINDER": "DQN0223hh (antibody, human IgG1, kappa, V domains shown, also called DQN0223Lh) VH: QQQLEESGGGLVKPGGTLTLTCKASRIDFSTYYYICWVRQSPWKGLEWIACIYSGDGYTYYPSWAKGRFSISKTSSTTVTLQVTSLTAADTATYFCARSYGGSSASAYFTLWGPGTQVTVSS VL: AVVLTQTASPVSAPVGGTVTIKCQASQSIGSNLGWYQQKPGQPPKLLIYGASALASGVPSRFKGSGSGTQFTLTINDLECADAATYYCQGYYYSSSAEWHSFGGGTKVEIKR",
    "EXPERIMENTAL_RESULT": 36
  },
  {
    "BINDER": "DQN0370hh (antibody, human IgG1, kappa, V domains shown, also called DQN0370Lh) VH: QSLEESGGGLVKPGGPLTLTCTASGFSFSSAYYMCWVRQAPGKGLEWIACIYVGSGSTYYTSWAKGRFTISKVSSTTMTLQMTSLTAADTATYFCARDPLIYYYYGELNLWGPGTLVTVSS VL: AVVLTQTASPVSAPVGGTVTIKCQASEDIYSNLAWYQQKPGQRPKVLIYSASTLASGVSSRFKGSRSGTEYTLSITDLGCADAATYYCQAYYDIGGVTFGGGTKVEIKR",
    "EXPERIMENTAL_RESULT": 79.2
  },
  {
    "BINDER": "DQN0344xx (antibody, human IgG1, kappa, V domains shown, also called DQN0344Hx; DQN0344Lx) VH: QSLEESGGGLVKPGGTLTLTCTASGFSFSSSYWMCWVRQAPGKGLEWVACVYGGSDTTYYASWTKGRFTISKGSSTTVALQVTSLTAADTATYFCARDPLNYYYYGELNLWGPGTLVTVSS VL: AVVLTQTASPVSAAVGGTVTIRCQATENIYSGLAWYQQKPGQPPKVLIYYVSTLASGVPSRFKGSGSGTEYTLTISGVQCDDAATYYCQTYHDISNVTFGGGTKVEIKR",
    "EXPERIMENTAL_RESULT": 75.3
  }
]
